- assay comment: Liver microsomal stability, mouse
- Assay type: in vitro ADME
- test context: mouse liver microsomes, 1 μM substrate, 0.5 mg protein/mL, 30 min
assay readout: remaining at 0.5 h, 1 μM (%)
The reply should be a number in %, with the unit left off.

Given the molecule COc1ccc(CNC(=O)c2nc(-c3ccc4c(c3)OCO4)no2)cc1OC [iCDM-17] , what is its reported remaining at 0.5 h, 1 μM? 45.8

Next up: O=C(Nc1ccc(Br)cc1)c1ccn(Cn2cc([N+](=O)[O-])cn2)n1 [iCDM-34] 41.2

###

- assay comment: Liver microsomal stability, rat
- Format: in vitro ADME
- test context: rat liver microsomes
Would you kindly list half-life at 1 μM for each of these molecules?
Entry rule: numbers only, all in h.

I would be grateful if you could share the reported half-life at 1 μM for "O=C(Nc1ccc(Br)cc1)c1ccn(Cn2cc([N+](=O)[O-])cn2)n1" . 3.32

Next up: "COc1ccc(CNC(=O)c2nc(-c3ccc4c(c3)OCO4)no2)cc1OC" 0.445

###

- assay comment: Liver microsomal stability, human
- Format: in vitro ADME
- test context: human liver microsomes
For each of the compounds below, state its half-life at 1 μM.

Given the entry "COc1ccc(CNC(=O)c2nc(-c3ccc4c(c3)OCO4)no2)cc1OC" , report its measured half-life at 1 μM. 0.81 h

Please do the same for "O=C(Nc1ccc(Br)cc1)c1ccn(Cn2cc([N+](=O)[O-])cn2)n1" as well. 8.43 h

Values from paper PMC10746708
